Measured Ki by item
Biological target: UniProt:P04150
Assay: Glucocorticoid Receptor Binding Assay (II), fluorescence polarization competitor assay
Details: recombinant human full-length GR cell lysate, Fluormone GS1; read-out: GR (Ki, nM) (measured in GR binding Assay II)
Give a bare numeral; the unit nM is implied.

Below, each entry is followed by its recorded Ki result.
// query Give UniProt:P04150 Ki for CC(C)(c1nc2nccnc2[nH]1)[C@@H]1c2ccc(-c3ccc(S(C)(=O)=O)cc3)nc2Oc2c(F)cccc21
// result 2.89

// query Record: CC(C)(O)c1ccc(-c2ccc3c(n2)Oc2c(F)cccc2[C@@H]3C(C)(C)c2nc3nccnc3[nH]2)cn1
// result 9.3

// query Record: CCS(=O)(=O)c1ccc(-c2ccc3c(n2)Oc2c(F)cccc2[C@@H]3C(C)(C)c2nc3nccnc3[nH]2)cc1
// result 2.34

// query Record: CC(C)(c1nc2nccnc2[nH]1)[C@@H]1c2ccc(-c3ccc(OC(F)(F)F)cc3)nc2Oc2c(F)cccc21
// result 2.36

// query Record: CC(C)S(=O)(=O)c1ccc(-c2ccc3c(n2)Oc2c(F)cccc2[C@@H]3C(C)(C)c2nc3nccnc3[nH]2)cc1
// result 1.4

Continuing:
// query Give UniProt:P04150 Ki for CC(C)Oc1ccc(-c2ccc3c(n2)Oc2c(F)cccc2[C@@H]3C(C)(C)c2nc3nccnc3[nH]2)cc1
// result 0.76

// query Record: CC(C)Oc1ccc(-c2ccc3c(n2)Oc2c(F)cccc2[C@@H]3C(C)(C)c2nc3nccnc3[nH]2)cc1F
// result 0.67

// query Record: CC(C)(c1nc2nccnc2[nH]1)[C@@H]1c2ccc(-c3ccc(C(=O)N4CCOCC4)nc3)nc2Oc2c(F)cccc21
// result 30.3

// query Record: CC(C)(C)Oc1ccc(-c2ccc3c(n2)Oc2c(F)cccc2[C@@H]3C(C)(C)c2nc3nccnc3[nH]2)cc1
// result 0.82

// query Record: CC(C)(c1nc2nccnc2[nH]1)[C@@H]1c2ccc(-c3ccc(N4CCCC4=O)cc3)nc2Oc2c(F)cccc21
// result 1.9

---

Target: human full-length glucocorticoid receptor (Homo sapiens (Human))
Sequence (P04150 whole entry): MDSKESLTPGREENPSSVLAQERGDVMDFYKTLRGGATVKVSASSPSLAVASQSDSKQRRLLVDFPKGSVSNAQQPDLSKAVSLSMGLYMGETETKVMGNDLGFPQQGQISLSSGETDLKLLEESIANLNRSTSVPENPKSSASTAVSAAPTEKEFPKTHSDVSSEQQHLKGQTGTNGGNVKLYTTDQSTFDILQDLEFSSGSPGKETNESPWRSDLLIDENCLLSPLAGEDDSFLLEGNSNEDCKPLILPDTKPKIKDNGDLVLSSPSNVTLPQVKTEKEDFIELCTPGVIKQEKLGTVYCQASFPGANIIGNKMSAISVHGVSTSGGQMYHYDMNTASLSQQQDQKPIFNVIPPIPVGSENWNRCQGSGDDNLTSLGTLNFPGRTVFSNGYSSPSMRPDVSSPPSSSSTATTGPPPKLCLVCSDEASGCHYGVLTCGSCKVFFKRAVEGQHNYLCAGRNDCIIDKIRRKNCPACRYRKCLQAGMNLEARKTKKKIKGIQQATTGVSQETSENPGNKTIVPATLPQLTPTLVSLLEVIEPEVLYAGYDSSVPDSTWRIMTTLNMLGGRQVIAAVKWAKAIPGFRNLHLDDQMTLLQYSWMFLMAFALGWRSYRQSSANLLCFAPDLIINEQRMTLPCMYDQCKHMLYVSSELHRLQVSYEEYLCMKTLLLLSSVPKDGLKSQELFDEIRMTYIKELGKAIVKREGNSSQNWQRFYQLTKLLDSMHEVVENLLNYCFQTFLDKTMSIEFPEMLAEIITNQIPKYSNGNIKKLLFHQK
Test: Glucocorticoid Receptor Binding Assay (II), fluorescence polarization competitor assay
Details: recombinant human full-length GR cell lysate, Fluormone GS1; read-out: GR (Ki, nM) (measured in GR binding Assay II)
Measured Ki by item
Give a bare numeral; the unit nM is implied.

// query Record request: Ki value, item CC(=O)Nc1ccc(-c2ccc3c(n2)Oc2c(F)cccc2[C@@H]3C(C)(C)c2nc3nccnc3[nH]2)cc1
// result 70.5

// query Record: CCOc1ccc(-c2ccc3c(n2)Oc2c(F)cccc2[C@@H]3C(C)(C)c2nc3nccnc3[nH]2)cc1
// result 0.66

Here's the next entry for you.
// query Record request: Ki value, item CC(C)Oc1ccc(-c2ccc3c(n2)Oc2c(F)cccc2[C@@H]3C(C)(C)c2nc3nccnc3[nH]2)cc1Cl
// result 2.1

---

Test system: AP-1
Experiment: Cellular transrepressional assay (AP-1 luciferase reporter in A549 cells, PMA-activated)
Type: cell-based
Settings: A549 cells, 7xAP-1 luciferase, PMA 10 ng/ml, 7 hours; read-out: AP-1 (EC50, nM) (measured in cellular transrepression assay)
QUANTITY NAME: log10 EC50 (log10 of the value in nM)
The common logarithm of EC50 in nM is what is listed.

Below, each entry is followed by its recorded log10 EC50 result.
// query Give AP-1 log10 EC50 for CCS(=O)(=O)c1ccc(-c2ccc3c(n2)Oc2c(F)cccc2[C@@H]3C(C)(C)c2nc3nccnc3[nH]2)cc1 [Example 6]
// result 1.19

// query Record: CC(C)(c1nc2nccnc2[nH]1)[C@@H]1c2ccc(-c3ccc(N)cc3)nc2Oc2c(F)cccc21 [Example 22]
// result 1.30

// query Record: CC(C)(O)c1ccc(-c2ccc3c(n2)Oc2c(F)cccc2[C@@H]3C(C)(C)c2nc3nccnc3[nH]2)cc1 [Example 3]
// result 0.59

// query Record: CC(C)Oc1ccc(-c2ccc3c(n2)Oc2c(F)cccc2[C@@H]3C(C)(C)c2nc3nccnc3[nH]2)cc1F [Example 10]
// result 1.30

// query Record: CC(C)(c1nc2nccnc2[nH]1)[C@@H]1c2ccc(-c3ccc(C(=O)N4CCOCC4)cc3)nc2Oc2c(F)cccc21 [Example 1]
// result 0.92

// query Record: Cn1nnnc1-c1ccc(-c2ccc3c(n2)Oc2c(F)cccc2[C@@H]3C(C)(C)c2nc3nccnc3[nH]2)cc1 [Example 31]
// result 1.18

Continuing:
// query Give AP-1 log10 EC50 for CC(C)(c1nc2nccnc2[nH]1)[C@@H]1c2ccc(-c3ccc(N4CCOCC4)cc3)nc2Oc2c(F)cccc21 [Example 18]
// result 1.79
